Recorded IC50, one value per entry.
- Tested on: MCF7
- testMethodNotes: Cytotoxicity against human MCF7 cells assessed as growth inhibition after 72 hrs by MTT colorimetric assay
- Assay type: functional, cell-based
- conditionDescription: MCF7, 72 h

{"inputSmiles": "Cc1ccc(C(=O)NNC(=S)Nc2csc(-c3ccccc3)c2)cc1", "operator": "=", "IC50 / µM": 30}
{"inputSmiles": "COc1ccc(-c2cc(NC(=S)NNC(=O)c3ccc(C)cc3)cs2)cc1", "operator": "=", "IC50 / µM": 40}
{"inputSmiles": "COc1cc(OC)cc(C(=O)NNC(=S)Nc2csc(-c3ccccc3)c2)c1", "operator": "=", "IC50 / µM": 38}
{"inputSmiles": "COc1ccc(-c2cc(Nc3nnc(-c4ccc(C)cc4)s3)cs2)cc1", "operator": ">", "IC50 / µM": 100}
{"inputSmiles": "COc1cc(-c2nnc(Nc3csc(-c4ccccc4)c3)s2)cc(OC)c1OC", "operator": ">", "IC50 / µM": 100}
{"inputSmiles": "COc1ccc(-c2nnc(Nc3csc(-c4ccccc4)c3)s2)cc1OC", "operator": "=", "IC50 / µM": 92}
{"inputSmiles": "COc1ccc(C(=O)NNC(=S)Nc2csc(-c3ccccc3)c2)cc1OC", "operator": "=", "IC50 / µM": 21}
{"inputSmiles": "COc1ccc(C(=O)NNC(=S)Nc2csc(-c3ccc(C)cc3)c2)cc1OC", "operator": "=", "IC50 / µM": 11}
{"inputSmiles": "COc1cc(OC)cc(C(=O)NNC(=S)Nc2csc(-c3ccc(C)cc3)c2)c1", "operator": "=", "IC50 / µM": 26}
